Target: Prostaglandin E2 receptor EP3 subtype (Homo sapiens, UniProt P43115)
Sequence (P43115 whole entry): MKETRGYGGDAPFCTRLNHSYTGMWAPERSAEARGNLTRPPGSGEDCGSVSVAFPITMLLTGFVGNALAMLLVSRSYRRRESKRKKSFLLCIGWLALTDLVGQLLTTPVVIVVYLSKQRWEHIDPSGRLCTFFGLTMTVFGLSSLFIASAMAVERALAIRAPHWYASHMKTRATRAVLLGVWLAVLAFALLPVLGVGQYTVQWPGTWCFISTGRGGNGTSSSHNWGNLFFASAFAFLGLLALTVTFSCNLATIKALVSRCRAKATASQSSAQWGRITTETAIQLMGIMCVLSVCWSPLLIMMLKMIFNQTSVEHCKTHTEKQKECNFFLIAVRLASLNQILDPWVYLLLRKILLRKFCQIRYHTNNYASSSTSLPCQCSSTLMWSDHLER
Assay: Binding affinity towards EP3 receptor expressed in HEK293 ebna cells recombinantly expressing the corresponding human prostanoid cDNAs
ASSAY_READOUT: log10(Ki) (log10 of the value in µM)
For clarity, the numbers are log10 values of Ki expressed in µM.

Consider the reported log10(Ki) for these molecules:
CCCCCC(O)CCC1CCC(=O)N1CCCCCCC(=O)O (stereo not given)
0.30
O=C(O)CCCCCCN1C(=O)CC[C@@H]1/C=C/C(O)CCc1ccccc1 (stereo not given in full)
0.30
CCCCCC(O)/C=C/[C@H]1CCC(=O)N1CCCCCCC(=O)O (stereo not given in full)
-0.38
CCCCCC(O)CC[C@@H]1CCC(=O)N1CCCCCCC(=O)O (stereo not given in full)
0.37
O=C(O)CCCCCCN1C(=O)CC[C@@H]1/C=C/C(O)C1(c2ccccc2)CC1 (stereo not given in full)
0.52
CCCCCC(O)CC[C@H]1CCC(=O)N1CCCCCCC(=O)O (stereo not given in full)
-0.15

// recorded log10(Ki) for CCCCCC(O)/C=C/[C@@H]1CCC(=O)N1CCCCCCC(=O)O (stereo not given in full) : 0.09

// recorded log10(Ki) for CC(C)(c1ccccc1)C(O)/C=C/[C@H]1CCC(=O)N1CCCCCCC(=O)O (stereo not given in full) : 1.03

----------
biological target: Prostaglandin E2 receptor EP4 subtype (Homo sapiens, UniProt P35408); experiment: EP4 agonist potency utilizing a stable clone of pSV40-EP4 transfected into HEK293 cells expressing EP4 receptor
Sequence (P35408 whole entry): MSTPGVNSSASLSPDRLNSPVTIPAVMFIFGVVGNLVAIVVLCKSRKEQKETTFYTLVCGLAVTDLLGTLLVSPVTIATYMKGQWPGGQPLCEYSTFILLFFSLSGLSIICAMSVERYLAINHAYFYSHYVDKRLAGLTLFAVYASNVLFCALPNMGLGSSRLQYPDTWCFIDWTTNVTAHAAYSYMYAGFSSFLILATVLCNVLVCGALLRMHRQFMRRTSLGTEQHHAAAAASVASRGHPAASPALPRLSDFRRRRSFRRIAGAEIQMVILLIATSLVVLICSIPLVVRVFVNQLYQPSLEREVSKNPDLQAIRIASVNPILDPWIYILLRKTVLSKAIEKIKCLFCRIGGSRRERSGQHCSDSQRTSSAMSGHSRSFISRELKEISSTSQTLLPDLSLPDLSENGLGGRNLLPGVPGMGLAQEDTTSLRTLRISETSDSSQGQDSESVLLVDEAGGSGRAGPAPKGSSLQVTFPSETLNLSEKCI
ASSAY_READOUT: EC50 (nM)
// note: answer is a bare numeric in nM

Assay Prostaglandin E2 receptor EP4 subtype (Homo sapiens, UniProt P35408), sample O=C1CC[C@H](/C=C/[C@@H](O)Cc2ccccc2)N1CCCCCCc1nnn[nH]1 , EC50 read: 2.5

----------
molecular target: Prostaglandin E2 receptor EP2 subtype (Homo sapiens); assay: Binding affinity towards EP2 receptor expressed in HEK293 ebna cells recombinantly expressing the corresponding human prostanoid cDNAs
Sequence (P43116 whole entry): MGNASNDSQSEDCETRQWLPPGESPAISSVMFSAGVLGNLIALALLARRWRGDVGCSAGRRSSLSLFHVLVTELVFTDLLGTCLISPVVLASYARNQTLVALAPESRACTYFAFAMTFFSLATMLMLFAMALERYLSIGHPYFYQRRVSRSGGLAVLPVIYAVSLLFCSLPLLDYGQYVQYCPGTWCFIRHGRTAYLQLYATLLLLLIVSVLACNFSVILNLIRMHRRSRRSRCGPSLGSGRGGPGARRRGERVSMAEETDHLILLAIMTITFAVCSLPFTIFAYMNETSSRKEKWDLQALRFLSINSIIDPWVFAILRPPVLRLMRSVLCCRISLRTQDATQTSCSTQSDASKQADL
pKi: −log10 of the molar value.
ASSAY_READOUT: pKi

Consider the reported pKi for these compounds:
CCCCCC(O)CCC1CCC(=O)N1CCCCCCC(=O)O (stereo not given)
5.52
O=C(O)CSCCCCN1C(=O)CC[C@@H]1/C=C/C(O)Cc1ccccc1 (stereo not given in full)
< 4.89
O=C(O)CCCCCCN1C(=O)CC[C@@H]1/C=C/C(O)C1(c2ccccc2)CC1 (stereo not given in full)
< 4.89
O=C(O)CCCCCCN1C(=O)CC[C@@H]1/C=C/C(O)Cc1ccccc1 (stereo not given in full)
< 4.89

// recorded pKi for O=C(O)CCCCCCN1C(=O)CC[C@@H]1/C=C/C(O)CCc1ccccc1 (stereo not given in full) : < 4.89

// recorded pKi for CCCCCC(O)CC[C@H]1CCC(=O)N1CCCCCCC(=O)O (stereo not given in full) : 5.39

// recorded pKi for O=C1CC[C@H](/C=C/C(O)Cc2ccccc2)N1CCCCSCc1nn[nH]n1 (stereo not given in full) : < 4.89

// recorded pKi for CCCCCC(O)/C=C/[C@H]1CCC(=O)N1CCCCCCC(=O)O (stereo not given in full) : 5.18

// recorded pKi for COC(=O)CSCCCCN1C(=O)CC[C@@H]1/C=C/C(O)Cc1ccccc1 (stereo not given in full) : < 4.89

// recorded pKi for CC(O)(/C=C/[C@H]1CCC(=O)N1CCCCCCC(=O)O)Cc1ccccc1 (stereo not given in full) : < 4.89
